TESTED_SYSTEM: Acetylcholinesterase (AChE) (Rattus norvegicus)
Construct: Aliquots of this supernatant was diluted in the ratio of 1:10 and used as a source of enzyme for the assay; from tissue; host or cells: whole brain of adult male SD rats; 100,000 x g supernatant of a 10% homogenate with Triton X-100
Sequence (P37136 32-614): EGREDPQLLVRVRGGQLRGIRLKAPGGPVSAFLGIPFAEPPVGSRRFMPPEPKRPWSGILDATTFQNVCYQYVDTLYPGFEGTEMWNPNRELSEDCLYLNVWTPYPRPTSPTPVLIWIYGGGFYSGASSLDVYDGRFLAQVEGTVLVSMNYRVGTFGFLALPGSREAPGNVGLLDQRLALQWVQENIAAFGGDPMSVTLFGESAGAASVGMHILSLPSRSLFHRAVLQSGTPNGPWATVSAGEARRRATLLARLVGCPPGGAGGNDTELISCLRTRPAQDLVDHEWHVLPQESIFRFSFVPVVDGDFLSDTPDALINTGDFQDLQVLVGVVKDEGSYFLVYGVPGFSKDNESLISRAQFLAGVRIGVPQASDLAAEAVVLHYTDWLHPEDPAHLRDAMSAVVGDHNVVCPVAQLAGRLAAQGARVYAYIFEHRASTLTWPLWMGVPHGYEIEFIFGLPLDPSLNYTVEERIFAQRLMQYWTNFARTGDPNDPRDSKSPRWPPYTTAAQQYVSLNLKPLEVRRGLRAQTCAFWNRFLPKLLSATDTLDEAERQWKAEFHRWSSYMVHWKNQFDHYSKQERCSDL
ASSAY_TEXT: Acetylcholinesterase (AChE) assay in brain (in vitro), Ellman method
Assay type: biochemical
ASSAY_CONTEXT: 0.5 h; 100 μg/1 ml of reaction mixture, incubated 30 min at 37° C., rat brain enzyme source; read-out: In Vitro %) (AChE inhibitory activity, % decrease change from control)
EXPERIMENTAL_READOUT: inhibition at 100 µg/mL (%)
Unit % implied. Number only.

Solved cases below.
                                   molecule  quantitative_result
0  COc1ccc2ccc(=O)oc2c1 [7-Methoxycoumarin]                 25.2
1  CC(=O)Oc1ccc2c(C)cc(=O)oc2c1 [4-Methyl-7-acetyloxycoumarin]                 23.9
2  Cc1cc(=O)oc2c(O)c(O)ccc12 [4-Methyl-7,8-dihydroxycoumarin]                 14.1
3  CC1(C)CCc2cc3ccc(=O)oc3cc2O1 [Dihydroxanthyletin]                 37.8
4  CC(=O)Oc1ccc2c(C)cc(=O)oc2c1OC(C)=O [4-Methyl-7,8-diacetyloxycoumarin]                   24
5  Cc1cc(=O)oc2cc(O)ccc12 [4-Methyl-7-hydroxycoumarin]                 17.4

IN: Consider the molecule COc1ccc2c(C)cc(=O)oc2c1 [4-Methyl-7-methoxycoumarin] and give its measured inhibition at 100 µg/mL.
OUT: 48.9

IN: Consider the molecule Cc1cc(=O)oc2c(OCc3ccccc3)c(OCc3ccccc3)ccc12 [4-Methyl-7,8-dibenzyloxycoumarin] and give its measured inhibition at 100 µg/mL.
OUT: 24.1

IN: Consider the molecule CC(=O)Oc1ccc2ccc(=O)oc2c1 [7-Acetyloxycoumarin] and give its measured inhibition at 100 µg/mL.
OUT: 39.1

IN: Consider the molecule CC(C)(O)[C@@H]1Cc2c(ccc3ccc(=O)oc23)O1 [Columbianetin] and give its measured inhibition at 100 µg/mL.
OUT: 13.9

IN: Consider the molecule COc1ccc2c(C)cc(=O)oc2c1OC [4-Methyl-7,8-dimethoxycoumarin] and give its measured inhibition at 100 µg/mL.
OUT: 14.2
